Test system: MM.1S cells (myeloma cells)
Assay: Cell proliferation assay (MTS), MM.1S myeloma cells
Type: cell-based
Conditions: 72 hours, read-out: IC50 values of MMIS Inhibition
pIC50: −log10 of the molar value.
VALUE KIND: pIC50

Challenge: Give a short answer stating reported pIC50 for [2H]C1(N2Cc3c(NCc4ccc(CN5CCOCC5)cc4F)cccc3C2=O)CCC(=O)NC1=O (centres unmarked) .
Response given: > 6.52

Challenge: Item [2H]C1(N2Cc3c(OCc4ccc(CN5CCOCC5)cc4F)cccc3C2=O)CCC(=O)NC1=O (centres unmarked) : provide pIC50
Response given: > 6.52
